- Measurement target: T1, human NK2 Receptor (human, UniProt P21452 1-398)
- T1 construct: whole, on cells; calcium assays used intact CHO-hNK2 cells; also called hNK2R; hNK2
- T1 sequence (looked up): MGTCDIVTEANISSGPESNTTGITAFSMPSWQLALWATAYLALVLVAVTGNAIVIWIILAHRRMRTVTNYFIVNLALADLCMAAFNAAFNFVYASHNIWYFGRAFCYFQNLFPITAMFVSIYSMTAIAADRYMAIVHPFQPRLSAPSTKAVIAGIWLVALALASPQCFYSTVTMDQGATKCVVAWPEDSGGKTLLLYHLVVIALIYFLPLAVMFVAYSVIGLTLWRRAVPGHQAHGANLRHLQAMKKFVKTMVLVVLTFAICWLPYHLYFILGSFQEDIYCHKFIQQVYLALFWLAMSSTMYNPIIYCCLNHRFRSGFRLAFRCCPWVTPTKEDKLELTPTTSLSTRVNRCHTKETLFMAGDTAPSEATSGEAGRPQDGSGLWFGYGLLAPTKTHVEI
- Assay notes: radioligand competition, displacement of 0.1 nM [125I]-NKA from CHO-hNK2 membranes
pKi: −log10 of the molar value. Where no end group is shown, it is not given here. [ ]: non-standard residue; d: D form. NMeL = CN[C@@H](CC(C)C)C(=O)O; Nle = CCCC[C@H](N)C(=O)O
Measured pKi, listed per entry.

>  <Binder>
DRFVG[NMeL][Nle]-NH2 (synthetic heptapeptide analog of neurokinin A, Fmoc solid-phase synthesis; also called Compound B; Cmpd B) [Heptapeptide analog B, Asp-Arg-Phe-Val-Gly-(NMe-Leu)-Nle-NH2]

>  <pKi>
9.23

$$$$
>  <Binder>
DRFVGLM (HELM PEPTIDE1{D.R.F.V.G.[meL].M.[am]}$$$$V2.0; N-terminus assumed; SMILES CSCC[C@H](NC(=O)[C@H](CC(C)C)N(C)C(=O)CNC(=O)[C@@H](NC(=O)[C@H](Cc1ccccc1)NC(=O)[C@H](CCCNC(=N)N)NC(=O)[C@@H](N)CC(=O)O)C(C)C)C(N)=O, synthetic heptapeptide analog of neurokinin A, Fmoc solid-phase synthesis; also called Compound C; Cmpd C) [Heptapeptide analog C, Asp-Arg-Phe-Val-Gly-(NMe-Leu)-Met-NH2]

>  <pKi>
9.92

$$$$
